Source of measurements: patent US11464867B2

A collection of substances and their measured Tc
# RUN_DESCRIPTION: Multivariate fit of the phase diagram of ELP monoblock copolymers
# Format: physicochemical
# ASSAY_CONTEXT: critical transition temperature
Provide the reading as a plain figure in °C.

Illustrative cases are given below, each with its answer.
SUBSTANCE | Tc, °C
(Val-Pro-Gly-Ala-Gly): ELP monoblock library, SEQ ID NO: 61 (VPGAG) | 40.5
(Val-Pro-Gly-Ile-Gly): ELP monoblock library, SEQ ID NO: 63 (VPGIG) | 13.0
(Val-Pro-Gly-Val-Gly): ELP monoblock library, SEQ ID NO: 62 (VPGVG) | 21.2

Consider the additional substance presented here.
Problem: Reported Tc, substance (Val-Pro-Gly-Ser-Gly): ELP monoblock library, SEQ ID NO: 60 (VPGSG) : ____
Result: 63.6

---

# RUN_DESCRIPTION: Multivariate fit of the phase diagram of ELP monoblock copolymers
# Type: physicochemical
# ASSAY_CONTEXT: dependence on natural logarithm of concentration
Listing of entries alongside the reported m.

As a guide, the following entries are already answered.
SUBSTANCE | MEASURED_PARAMETER | VAL
(Val-Pro-Gly-Ile-Gly): ELP monoblock library, SEQ ID NO: 63 (VPGIG) | m | 0 ° C./ln(μM)
(Val-Pro-Gly-Ser-Gly): ELP monoblock library, SEQ ID NO: 60 (VPGSG) | m | −1.86 ± 0.31 ° C./ln(μM)
(Val-Pro-Gly-Val-Gly): ELP monoblock library, SEQ ID NO: 62 (VPGVG) | m | 0 ° C./ln(μM)

In the following, a different substance is considered.
Problem: m lookup needed for (Val-Pro-Gly-Ala-Gly): ELP monoblock library, SEQ ID NO: 61 (VPGAG) , thanks.
Result: 0 ° C./ln(μM)

---

Catalogue of substances with associated K
# RUN_DESCRIPTION: Multivariate fit of the phase diagram of ELP monoblock copolymers
# Assay type: physicochemical
# ASSAY_CONTEXT: interaction term between length and concentration

SUBSTANCE | MEASURED_PARAMETER | VAL
(Val-Pro-Gly-Ala-Gly): ELP monoblock library, SEQ ID NO: 61 (VPGAG) | K | −850.1 ± 51.5 °C pentamers/ln(μM)

Problem: Quick check: K of (Val-Pro-Gly-Val-Gly): ELP monoblock library, SEQ ID NO: 62 (VPGVG) ?
Result: −163.1 ± 23.3 °C pentamers/ln(μM)

Problem: For (Val-Pro-Gly-Ile-Gly): ELP monoblock library, SEQ ID NO: 63 (VPGIG) , what is its reported K?
Result: −81.2 ± 7.9 °C pentamers/ln(μM)

Problem: Form field: reported K of (Val-Pro-Gly-Ser-Gly): ELP monoblock library, SEQ ID NO: 60 (VPGSG)
Result: 0 °C pentamers/ln(μM)
